Catalogue of polymerase ribozyme fitness (log ratio) values
B1: TPR 5TU (parent)
chain: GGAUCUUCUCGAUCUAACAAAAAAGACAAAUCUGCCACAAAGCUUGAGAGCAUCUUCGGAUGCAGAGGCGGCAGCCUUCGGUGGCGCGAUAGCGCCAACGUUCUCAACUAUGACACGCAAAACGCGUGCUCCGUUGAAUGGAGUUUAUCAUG

Variants of: B1
ASSAY_EXPLANATION: polymerase ribozyme fitness, log enrichment relative to wild type (log ratio); higher = more active; in vitro selection for triplet polymerase activity
Fewer inactive variants are shown than the library holds.

>  <VAR>
C54U U104G

>  <RELATIONAL_OPERATOR>
=

>  <polymerase ribozyme fitness (log ratio)>
-1.21

$$$$
>  <VAR>
A22C A26U C43U C76A C93G C118G

>  <RELATIONAL_OPERATOR>
≤

>  <polymerase ribozyme fitness (log ratio)>
-4.2

$$$$
>  <VAR>
C51A C63A G88U G126A

>  <RELATIONAL_OPERATOR>
≤

>  <polymerase ribozyme fitness (log ratio)>
-4.2

$$$$
>  <VAR>
A47C G124U

>  <RELATIONAL_OPERATOR>
=

>  <polymerase ribozyme fitness (log ratio)>
-1.09

$$$$
>  <VAR>
A60G C85A U101G

>  <RELATIONAL_OPERATOR>
=

>  <polymerase ribozyme fitness (log ratio)>
-2.94

$$$$
>  <VAR>
A21C C32G G50A C93U A119U

>  <RELATIONAL_OPERATOR>
≤

>  <polymerase ribozyme fitness (log ratio)>
-4.2

$$$$
>  <VAR>
C38U G126U

>  <RELATIONAL_OPERATOR>
=

>  <polymerase ribozyme fitness (log ratio)>
-0.118

$$$$
>  <VAR>
U55G C118U

>  <RELATIONAL_OPERATOR>
=

>  <polymerase ribozyme fitness (log ratio)>
-1.23

$$$$
>  <VAR>
C5G C54A G58C A73G C79A C87U C116A A138G

>  <RELATIONAL_OPERATOR>
≤

>  <polymerase ribozyme fitness (log ratio)>
-4.2

$$$$
>  <VAR>
A12U U33A C35G C57A U77C U101C U134A

>  <RELATIONAL_OPERATOR>
≤

>  <polymerase ribozyme fitness (log ratio)>
-4.2

$$$$
>  <VAR>
C93U U146G

>  <RELATIONAL_OPERATOR>
=

>  <polymerase ribozyme fitness (log ratio)>
-1.47

$$$$
>  <VAR>
C85A G152A

>  <RELATIONAL_OPERATOR>
=

>  <polymerase ribozyme fitness (log ratio)>
-3.87

$$$$
>  <VAR>
A19C C27A C125U U148G

>  <RELATIONAL_OPERATOR>
≤

>  <polymerase ribozyme fitness (log ratio)>
-4.2

$$$$
>  <VAR>
U33G G94A C123G G136A

>  <RELATIONAL_OPERATOR>
≤

>  <polymerase ribozyme fitness (log ratio)>
-4.2

$$$$
>  <VAR>
C5G A16G A19G A24U A37G G50C G84U A120C G133U

>  <RELATIONAL_OPERATOR>
≤

>  <polymerase ribozyme fitness (log ratio)>
-4.2

$$$$
>  <VAR>
C85A C118U

>  <RELATIONAL_OPERATOR>
=

>  <polymerase ribozyme fitness (log ratio)>
-0.342

$$$$
>  <VAR>
C72G C93G C95U C118G A138C U145A

>  <RELATIONAL_OPERATOR>
≤

>  <polymerase ribozyme fitness (log ratio)>
-4.2

$$$$
>  <VAR>
C54G G133C

>  <RELATIONAL_OPERATOR>
=

>  <polymerase ribozyme fitness (log ratio)>
-2.55

$$$$
>  <VAR>
A91U A147U

>  <RELATIONAL_OPERATOR>
=

>  <polymerase ribozyme fitness (log ratio)>
-3.99

$$$$
>  <VAR>
U44G G141A

>  <RELATIONAL_OPERATOR>
=

>  <polymerase ribozyme fitness (log ratio)>
-4.12

$$$$
>  <VAR>
A22G C51U G83A

>  <RELATIONAL_OPERATOR>
=

>  <polymerase ribozyme fitness (log ratio)>
0.818

$$$$
>  <VAR>
G68A U130C

>  <RELATIONAL_OPERATOR>
=

>  <polymerase ribozyme fitness (log ratio)>
-3.95

$$$$
